assay: in vitro
measurement kind: CC50

{"columns": ["substance smiles", "assay result"],
 "data": [
  ["C/C(=N\\NC(=O)CCCc1ccccc1)c1ccc(NC(=O)c2ccco2)cc1", "> 30 µM"],
  ["C/C(=N\\NC(=O)CCc1ccc(C(C)(C)C)cc1)c1ccc(NC(=O)c2ccco2)cc1", "> 30 µM"]
]}

Quick one: CC50 for COc1ccc(CC(=O)N/N=C(\C)c2ccc(NC(=O)c3ccco3)cc2)cc1 ?
> 30 µM

C/C(=N\NC(=O)CCc1ccccc1C)c1ccc(NC(=O)c2ccco2)cc1 ?
> 30 µM
